Taken from ChEMBL document CHEMBL3407429.

Record: IC50 reported on Acetylcholinesterase (Homo sapiens).
Sequence (P22303 whole entry): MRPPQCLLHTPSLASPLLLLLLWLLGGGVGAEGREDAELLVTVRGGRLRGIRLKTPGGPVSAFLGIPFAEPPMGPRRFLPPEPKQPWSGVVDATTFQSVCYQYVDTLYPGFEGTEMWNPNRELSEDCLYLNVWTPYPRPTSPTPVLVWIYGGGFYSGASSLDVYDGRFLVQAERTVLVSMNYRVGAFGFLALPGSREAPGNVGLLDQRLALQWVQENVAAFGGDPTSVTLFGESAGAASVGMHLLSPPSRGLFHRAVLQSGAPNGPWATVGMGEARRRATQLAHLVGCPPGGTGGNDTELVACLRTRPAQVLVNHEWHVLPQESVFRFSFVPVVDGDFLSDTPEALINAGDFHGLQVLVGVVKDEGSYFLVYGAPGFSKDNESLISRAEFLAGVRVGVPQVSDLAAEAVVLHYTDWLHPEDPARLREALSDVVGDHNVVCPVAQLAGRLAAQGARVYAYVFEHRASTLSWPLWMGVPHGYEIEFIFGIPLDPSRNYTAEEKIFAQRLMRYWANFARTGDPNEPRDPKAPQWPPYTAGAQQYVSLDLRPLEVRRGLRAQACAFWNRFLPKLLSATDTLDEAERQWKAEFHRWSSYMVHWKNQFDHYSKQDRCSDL
Lab book: enter the figure in µM, no units written.

Cc1c(C)c2c(c(C)c1O)CCC(C)(C(=O)NCCCCCNc1c3c(nc4ccccc14)CCCC3)O2 (centres undefined)
0.215
Cc1c(C)c2c(c(C)c1O)CCC(C)(C(=O)NCCNc1c3c(nc4ccccc14)CCCC3)O2 (centres undefined)
0.284
Cc1c(C)c2c(c(C)c1O)CCC(C)(C(=O)NCCCCCCCCNc1c3c(nc4ccccc14)CCCC3)O2 (centres undefined)
0.226

IN: Any idea what IC50 came out for Cc1c(C)c2c(c(C)c1O)CCC(C)(C(=O)NCCCCCCCCCCNc1c3c(nc4ccccc14)CCCC3)O2 (centres undefined) on Acetylcholinesterase (Homo sapiens)?
OUT: 0.453

###

- test_summary: in vitro
- condition_info: PAMPA
- Description: Permeability of the compound in PBS and EtOH by PAMPA method
measure: Papp (×10⁻⁶ cm/s)
Only the number, expressed in ×10⁻⁶ cm/s, is required.

Consider the following illustrative entries.
Cc1c(C)c2c(c(C)c1O)CCC(C)(C(=O)NCCCCCCNc1c3c(nc4ccccc14)CCCC3)O2 (centres undefined)
8.87
C[C@]12CCC(=O)C=C1CC[C@@H]1[C@@H]2CC[C@@]2(C)[C@H]1CC[C@]2(O)C(=O)CO
2.5
CN1C(C(=O)Nc2ccccn2)=C(O)c2ccccc2S1(=O)=O
0.6

The record that follows has no Papp shown yet.
IN: Need Papp of CCn1cc(C(=O)O)c(=O)c2cc(F)c(N3CCNC(C)C3)c(F)c21 (centres undefined) , thanks.
OUT: 0.8

###

- system_tested: UniProt P06276
- Sequence (P06276 whole entry): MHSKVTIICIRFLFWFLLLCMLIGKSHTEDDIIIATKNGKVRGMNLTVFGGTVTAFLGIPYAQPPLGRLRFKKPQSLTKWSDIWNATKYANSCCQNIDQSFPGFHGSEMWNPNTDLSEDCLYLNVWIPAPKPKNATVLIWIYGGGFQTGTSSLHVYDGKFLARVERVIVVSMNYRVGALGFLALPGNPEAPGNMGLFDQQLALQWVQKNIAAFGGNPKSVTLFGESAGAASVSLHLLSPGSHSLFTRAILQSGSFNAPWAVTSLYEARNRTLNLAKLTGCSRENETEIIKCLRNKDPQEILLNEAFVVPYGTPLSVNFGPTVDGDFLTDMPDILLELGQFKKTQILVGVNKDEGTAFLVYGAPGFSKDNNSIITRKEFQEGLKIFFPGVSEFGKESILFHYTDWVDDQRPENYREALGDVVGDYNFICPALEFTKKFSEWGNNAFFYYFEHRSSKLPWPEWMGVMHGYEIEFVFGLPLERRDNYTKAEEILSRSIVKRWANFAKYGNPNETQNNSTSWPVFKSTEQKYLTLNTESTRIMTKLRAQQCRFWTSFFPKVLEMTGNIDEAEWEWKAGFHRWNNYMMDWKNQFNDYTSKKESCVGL
pIC50: −log10 of the molar value.
Label scheme for pIC50: lower than 8 is label 0, 8 and above is label 1.

For orientation, consider the following solved cases.
Cc1c(C)c2c(c(C)c1O)CCC(C)(C(=O)NCCCCCCCNc1c3c(nc4ccccc14)CCCC3)O2 (configuration not stated)
label 0
Cc1c(C)c2c(c(C)c1O)CCC(C)(C(=O)NCCCCCCNc1c3c(nc4ccccc14)CCCC3)O2 (configuration not stated)
label 0
Cc1c(C)c2c(c(C)c1O)CCC(C)(C(=O)NCCCCNc1c3c(nc4ccccc14)CCCC3)O2 (configuration not stated)
label 1

IN: Would you say Cc1c(C)c2c(c(C)c1O)CCC(C)(C(=O)NCCCCCCCCCCNc1c3c(nc4ccccc14)CCCC3)O2 (configuration not stated) shows pIC50 at minimum 8?
OUT: label 0

IN: Decide: pIC50 of Cc1c(C)c2c(c(C)c1O)CCC(C)(C(=O)NCCNc1c3c(nc4ccccc14)CCCC3)O2 (configuration not stated) >= 8?
OUT: label 0

IN: Has Cc1c(C)c2c(c(C)c1O)CCC(C)(C(=O)NCCCCCCCCNc1c3c(nc4ccccc14)CCCC3)O2 (configuration not stated) a recorded pIC50 greater than or equal to 8?
OUT: label 0

###

Here's what we have: pIC50 numbers for Acetylcholinesterase (Homo sapiens, UniProt P22303).
// pIC50 is dimensionless: -log10 of concentration (M)

Cc1c(C)c2c(c(C)c1O)CCC(C)(C(=O)NCCCCNc1c3c(nc4ccccc14)CCCC3)O2 (stereo not drawn)
6.27

IN: Request the reported pIC50 associated with Cc1c(C)c2c(c(C)c1O)CCC(C)(C(=O)NCCCCCCNc1c3c(nc4ccccc14)CCCC3)O2 (stereo not drawn)
OUT: 7.63

IN: Give its pIC50 value. Item: Cc1c(C)c2c(c(C)c1O)CCC(C)(C(=O)NCCCCCCCNc1c3c(nc4ccccc14)CCCC3)O2 (stereo not drawn)
OUT: 6.84

###

Below are IC50 values measured for Cholinesterase (Equus caballus, UniProt P81908).
The response must be a number in nM with no trailing unit.

Please review the following examples before continuing.
Cc1c(C)c2c(c(C)c1O)CCC(C)(C(=O)NCCCCCCCCNc1c3c(nc4ccccc14)CCCC3)O2 (configuration not stated)
151
Cc1c(C)c2c(c(C)c1O)CCC(C)(C(=O)NCCCCCNc1c3c(nc4ccccc14)CCCC3)O2 (configuration not stated)
35.4

IN: Find IC50 (Cholinesterase (Equus caballus, UniProt P81908)) for the entry Cc1c(C)c2c(c(C)c1O)CCC(C)(C(=O)NCCCCNc1c3c(nc4ccccc14)CCCC3)O2 (configuration not stated)
OUT: 15.6

IN: For the record Cc1c(C)c2c(c(C)c1O)CCC(C)(C(=O)NCCNc1c3c(nc4ccccc14)CCCC3)O2 (configuration not stated) , what value of IC50 is listed for Cholinesterase (Equus caballus, UniProt P81908)?
OUT: 41.3

IN: Return IC50 measured with Cholinesterase (Equus caballus, UniProt P81908) given this molecule: Cc1c(C)c2c(c(C)c1O)CCC(C)(C(=O)NCCCCCCCNc1c3c(nc4ccccc14)CCCC3)O2 (configuration not stated)
Sequence (P81908 whole entry): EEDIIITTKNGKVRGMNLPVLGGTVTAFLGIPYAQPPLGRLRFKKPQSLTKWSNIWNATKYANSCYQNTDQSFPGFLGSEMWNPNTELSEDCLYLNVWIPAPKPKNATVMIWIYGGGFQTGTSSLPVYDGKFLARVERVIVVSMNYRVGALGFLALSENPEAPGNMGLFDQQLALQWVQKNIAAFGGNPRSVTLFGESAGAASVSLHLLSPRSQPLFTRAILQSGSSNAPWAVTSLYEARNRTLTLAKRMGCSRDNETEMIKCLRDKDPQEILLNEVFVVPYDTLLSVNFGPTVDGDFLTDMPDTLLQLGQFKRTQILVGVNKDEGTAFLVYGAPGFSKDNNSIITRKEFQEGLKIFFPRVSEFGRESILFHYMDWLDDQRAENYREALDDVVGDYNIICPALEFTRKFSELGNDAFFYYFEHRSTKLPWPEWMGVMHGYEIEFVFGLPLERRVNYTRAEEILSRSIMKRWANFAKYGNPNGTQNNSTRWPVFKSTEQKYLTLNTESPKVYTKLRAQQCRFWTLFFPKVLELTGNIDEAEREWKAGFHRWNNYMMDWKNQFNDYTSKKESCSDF
OUT: 61.7

IN: Provide value of IC50 for this record tested with Cholinesterase (Equus caballus, UniProt P81908): Cc1c(C)c2c(c(C)c1O)CCC(C)(C(=O)NCCCCCCCCCCNc1c3c(nc4ccccc14)CCCC3)O2 (configuration not stated)
OUT: 263

IN: Form entry - test system: Cholinesterase (Equus caballus, UniProt P81908); read-out: IC50; molecule: Cc1c(C)c2c(c(C)c1O)CCC(C)(C(=O)NCCCCCCNc1c3c(nc4ccccc14)CCCC3)O2 (configuration not stated)
OUT: 22.2

###

measure: IC50 (nM)
Give a bare numeral; the unit nM is implied.

Worked examples, 5 molecules total:
Cc1c(C)c2c(c(C)c1O)CCC(C)(C(=O)NCCCCCNc1c3c(nc4ccccc14)CCCC3)O2 (stereo not drawn)
40.7
Cc1c(C)c2c(c(C)c1O)CCC(C)(C(=O)NCCCCCCCCNc1c3c(nc4ccccc14)CCCC3)O2 (stereo not drawn)
47.3
Cc1c(C)c2c(c(C)c1O)CCC(C)(C(=O)O)O2 (stereo not drawn)
35.6
Cc1c(C)c2c(c(C)c1O)CCC(C)(C(=O)NCCCCNc1c3c(nc4ccccc14)CCCC3)O2 (stereo not drawn)
44.2
Cc1c(C)c2c(c(C)c1O)CCC(C)(C(=O)NCCCCCCCNc1c3c(nc4ccccc14)CCCC3)O2 (stereo not drawn)
46.9

IN: Looking for the measured IC50 of Cc1c(C)c2c(c(C)c1O)CCC(C)(C(=O)NCCNc1c3c(nc4ccccc14)CCCC3)O2 (stereo not drawn) , can you help?
OUT: 30.4

IN: Please give the measured IC50 for this molecule: Cc1c(C)c2c(c(C)c1O)CCC(C)(C(=O)NCCCCCCCCCCNc1c3c(nc4ccccc14)CCCC3)O2 (stereo not drawn)
OUT: 43.2

IN: Need IC50 of Cc1c(C)c2c(c(C)c1O)CCC(C)(C(=O)NCCCCCCNc1c3c(nc4ccccc14)CCCC3)O2 (stereo not drawn) , thanks.
OUT: 48.7

###

Entries with their measured log10 IC50, system Acetylcholinesterase (Electrophorus electricus):
// do not treat as linear: log10 of IC50, unit nM

Cc1c(C)c2c(c(C)c1O)CCC(C)(C(=O)NCCCCCCCNc1c3c(nc4ccccc14)CCCC3)O2 (configuration not stated)
1.97
Cc1c(C)c2c(c(C)c1O)CCC(C)(C(=O)NCCCCCCCCCCNc1c3c(nc4ccccc14)CCCC3)O2 (configuration not stated)
2.59
Cc1c(C)c2c(c(C)c1O)CCC(C)(C(=O)NCCCCNc1c3c(nc4ccccc14)CCCC3)O2 (configuration not stated)
2.75
Cc1c(C)c2c(c(C)c1O)CCC(C)(C(=O)NCCNc1c3c(nc4ccccc14)CCCC3)O2 (configuration not stated)
2.18
Cc1c(C)c2c(c(C)c1O)CCC(C)(C(=O)NCCCCCCCCNc1c3c(nc4ccccc14)CCCC3)O2 (configuration not stated)
2.36

IN: Quick check: log10 IC50 on Acetylcholinesterase (Electrophorus electricus), item Cc1c(C)c2c(c(C)c1O)CCC(C)(C(=O)NCCCCCNc1c3c(nc4ccccc14)CCCC3)O2 (configuration not stated) ?
OUT: 2.40

IN: Which measured log10 IC50 belongs to Cc1c(C)c2c(c(C)c1O)CCC(C)(C(=O)NCCCCCCNc1c3c(nc4ccccc14)CCCC3)O2 (configuration not stated) , tested on Acetylcholinesterase (Electrophorus electricus)?
OUT: 0.99
